TARGET DESC: HCV core protein (core106) dimerization, Hepatitis C virus
ASSAY OVERVIEW: HCV core dimerization inhibitor potency, late-stage follow-up, biochemical, TR-FRET, dose response, powder samples (AID 2488)
SETUP CONDITIONS: GST/Flag-core106 dimerization, TR-FRET HTRF
Active and inactive are the calls of the source.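 The calls were made as follows: active = IC50 at or below 10 µM; inactive = IC50 above 10 µM.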
Outcome codes: active, inactive

- SUBSTANCE SMILES: "Cc1ccc(Cc2c(C)nc3nc(SCC(=O)NCCCN4CCCCCC4)nn3c2C)cc1"
  TARGET DESC: "HCV core protein (core106) dimerization, Hepatitis C virus"
  CLASSIFICATION: "active"
- SUBSTANCE SMILES: "COCCN(C(=O)COC(=O)c1cc2c(s1)CCC2)c1c(N)n(Cc2ccccc2)c(=O)[nH]c1=O"
  TARGET DESC: "HCV core protein (core106) dimerization, Hepatitis C virus"
  CLASSIFICATION: "inactive"
- SUBSTANCE SMILES: "COc1ccc(NC(=O)CN(C)C(=O)c2cc3c(s2)CCC3)cc1"
  TARGET DESC: "HCV core protein (core106) dimerization, Hepatitis C virus"
  CLASSIFICATION: "inactive"
- SUBSTANCE SMILES: "Cc1ccccc1N1C(=O)/C(=C/c2ccco2)C(=O)NC1=S"
  TARGET DESC: "HCV core protein (core106) dimerization, Hepatitis C virus"
  CLASSIFICATION: "inactive"
- SUBSTANCE SMILES: "CCCCCC#CCC#CCC#CCC#CCCCC(=O)O"
  TARGET DESC: "HCV core protein (core106) dimerization, Hepatitis C virus"
  CLASSIFICATION: "inactive"
- SUBSTANCE SMILES: "CC1=C(/C=C/C(C)=C/C=C/C(C)=C/C=C/C=C(C)/C=C/C=C(C)/C=C/C2=C(C)CCCC2(C)C)C(C)(C)CCC1"
  TARGET DESC: "HCV core protein (core106) dimerization, Hepatitis C virus"
  CLASSIFICATION: "inactive"
- SUBSTANCE SMILES: "CCN(CC(=O)Nc1c(F)cccc1F)C(=O)/C=C/c1ccc2ccccc2n1"
  TARGET DESC: "HCV core protein (core106) dimerization, Hepatitis C virus"
  CLASSIFICATION: "inactive"
- SUBSTANCE SMILES: "O=C(/C=C/c1ccc(Br)o1)OCc1nc2ccsc2c(=O)[nH]1"
  TARGET DESC: "HCV core protein (core106) dimerization, Hepatitis C virus"
  CLASSIFICATION: "inactive"

Numbers sourced from PubChem BioAssay AID2488.
